Assayed System: T1, human LAG3 expressed on cells (human, UniProt P18627 23-525)
T1 sequence (looked up): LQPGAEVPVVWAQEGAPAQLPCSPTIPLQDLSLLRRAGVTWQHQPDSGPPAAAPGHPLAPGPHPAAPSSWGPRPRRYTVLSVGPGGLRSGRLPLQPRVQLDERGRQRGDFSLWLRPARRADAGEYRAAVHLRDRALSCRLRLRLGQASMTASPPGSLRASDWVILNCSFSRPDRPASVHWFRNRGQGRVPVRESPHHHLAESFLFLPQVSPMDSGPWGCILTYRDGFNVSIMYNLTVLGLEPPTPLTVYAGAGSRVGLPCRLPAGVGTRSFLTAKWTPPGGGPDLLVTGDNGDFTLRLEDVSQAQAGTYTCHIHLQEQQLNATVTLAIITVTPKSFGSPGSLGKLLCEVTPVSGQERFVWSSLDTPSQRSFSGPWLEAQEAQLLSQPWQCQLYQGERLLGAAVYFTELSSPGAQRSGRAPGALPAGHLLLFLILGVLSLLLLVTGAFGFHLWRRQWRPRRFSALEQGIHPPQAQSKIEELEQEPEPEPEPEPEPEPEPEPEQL
Test Method Notes: cell-based or functional assay
Entries annotated with measured IL-2, % of BMS, at 0.137174211 ug/mL
# unit: % | format: bare number

Past entries and their recorded results:
- Binder: "sdAb No. 27 (VHH, Fc of the tested form not described; also called sdAb 27; not shown: Fc part implied by anti-human Fc capture and anti-human IgG Fc detection) VHH: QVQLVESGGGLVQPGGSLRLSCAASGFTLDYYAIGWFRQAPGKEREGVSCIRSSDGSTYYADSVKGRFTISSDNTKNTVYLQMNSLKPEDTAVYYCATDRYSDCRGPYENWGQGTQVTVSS"
  IL-2, % of BMS, at 0.137174211 ug/mL [%]: 18
- Binder: "combination of sdAbs 25 and 2015 (other) VHH 1: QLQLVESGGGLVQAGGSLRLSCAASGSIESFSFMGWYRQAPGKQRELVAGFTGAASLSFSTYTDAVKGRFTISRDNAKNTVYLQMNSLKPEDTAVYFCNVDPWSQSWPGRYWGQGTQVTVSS VHH 2: QLQLVESGGGLAQTGGSLRLSCAAAGFTFDDTATGWFRQAPGKNREGVACISSSDGRIHYIDSAKGRFTISKDNAKKTVYLQMDSLKPEDTAVYYCAAARKGSTDCQGAIWGSWGQGTQVIVSS"
  IL-2, % of BMS, at 0.137174211 ug/mL [%]: 0.439
- Binder: "sdAb No. 18 (VHH, Fc of the tested form not described; also called sdAb 18; not shown: Fc part implied by anti-human Fc capture) VHH: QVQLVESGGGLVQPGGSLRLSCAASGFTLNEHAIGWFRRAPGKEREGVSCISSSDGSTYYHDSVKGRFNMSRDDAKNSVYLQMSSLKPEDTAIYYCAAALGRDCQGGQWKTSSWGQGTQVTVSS"
  IL-2, % of BMS, at 0.137174211 ug/mL [%]: 5.27

The measured IL-2, % of BMS, at 0.137174211 ug/mL associated with combination of sdAbs 25 and 27 (other) VHH 1: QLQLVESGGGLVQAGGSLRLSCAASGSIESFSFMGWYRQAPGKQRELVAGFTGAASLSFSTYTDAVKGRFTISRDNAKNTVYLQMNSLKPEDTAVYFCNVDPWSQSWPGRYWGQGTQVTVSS VHH 2: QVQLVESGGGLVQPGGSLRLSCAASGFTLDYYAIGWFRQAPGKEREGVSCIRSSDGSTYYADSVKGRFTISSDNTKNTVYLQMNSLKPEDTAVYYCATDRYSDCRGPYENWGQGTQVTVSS reads 10.8

The measured IL-2, % of BMS, at 0.137174211 ug/mL associated with sdAb No. 25 (VHH, Fc of the tested form not described; also called sdAb 25; sdAb #25; not shown: Fc part implied by anti-human Fc capture and anti-human IgG Fc detection) VHH: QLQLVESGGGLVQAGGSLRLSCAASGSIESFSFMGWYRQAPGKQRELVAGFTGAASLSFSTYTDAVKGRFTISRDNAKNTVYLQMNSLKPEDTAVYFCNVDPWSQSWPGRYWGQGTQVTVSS reads 2.39

The measured IL-2, % of BMS, at 0.137174211 ug/mL associated with combination of sdAbs 25 and 18 (other) VHH 1: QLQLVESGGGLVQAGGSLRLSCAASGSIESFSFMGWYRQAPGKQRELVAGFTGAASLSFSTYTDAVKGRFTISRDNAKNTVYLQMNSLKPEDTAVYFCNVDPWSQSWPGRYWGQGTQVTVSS VHH 2: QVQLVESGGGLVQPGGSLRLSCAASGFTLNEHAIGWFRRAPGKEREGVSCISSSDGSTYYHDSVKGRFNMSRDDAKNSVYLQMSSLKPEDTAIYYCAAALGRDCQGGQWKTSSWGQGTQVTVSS reads 14.6

Values compiled from patent US20230303690A1.
